target system: T1, Human Hsc70 (HSPA8) (human, UniProt P11142 1-646)
T1 construct: Hsc70 (HSPA8), constitutive Hsp70, human, wild type; In the functional rows from MEF and HeLa cells the Hsc70/Hsp70 is the cells' own; this molecule stands for it there; source: E. coli BL21 (DE3) Rosetta, purified (Ni-IDA, Ulp1 cleavage, reverse Ni-IDA)
T1 sequence (P11142 whole entry): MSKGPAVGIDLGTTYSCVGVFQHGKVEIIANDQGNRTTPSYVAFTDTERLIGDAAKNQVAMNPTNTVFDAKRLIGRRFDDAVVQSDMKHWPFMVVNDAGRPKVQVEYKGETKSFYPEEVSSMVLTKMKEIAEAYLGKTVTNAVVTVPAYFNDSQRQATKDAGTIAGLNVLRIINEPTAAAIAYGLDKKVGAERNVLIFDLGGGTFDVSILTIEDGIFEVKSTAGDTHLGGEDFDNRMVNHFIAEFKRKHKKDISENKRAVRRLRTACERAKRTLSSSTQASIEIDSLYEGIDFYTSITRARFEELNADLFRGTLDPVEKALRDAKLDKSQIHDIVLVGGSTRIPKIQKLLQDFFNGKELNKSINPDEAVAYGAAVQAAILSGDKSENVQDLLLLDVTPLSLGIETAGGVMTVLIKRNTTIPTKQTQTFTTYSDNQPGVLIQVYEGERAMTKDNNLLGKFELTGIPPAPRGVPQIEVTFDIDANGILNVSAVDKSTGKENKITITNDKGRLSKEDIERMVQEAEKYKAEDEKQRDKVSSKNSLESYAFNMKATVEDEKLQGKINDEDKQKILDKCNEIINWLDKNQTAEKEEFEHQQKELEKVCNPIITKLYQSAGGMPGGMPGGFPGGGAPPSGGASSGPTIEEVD
method notes: fluorescence polarisation; fluorescein-labelled peptide at 1 μM titrated with Hsc70 (0–60 μM), 2 h at 25°C, HKM150 buffer (25 mM HEPES/KOH pH 7.6, 150 mM KCl, 5 mM MgCl2); Hsc70 concentrated in the presence of 1 mM ATP; quadratic fit
stated conditions: both partners purified
Ends that are not written are not given here.
metric: Kd

QUERY: What value of Kd has been reported for the following binder? SGKQLVHYTAQC(fluorescein‑5‑maleimide) (Hsf1, human, residues 461-471 (in the TAD); C-terminal cysteine for labelling, not part of the Hsf1 stretch; also called residues 461–471) [Hsf1 peptide S461‐Q471‐C]
RESULT: 5 to 30 µM
